Entry source: patent US9296725B2

- SYSTEM_UNDER_TEST: TYK2 (Homo sapiens)
- Construct: endogenous in cells; host or cells: Molt4 (ATCC CRL-1582) and Ramos (ATCC CRL-1596), mixed lysate 1:2
- Sequence (P29597 whole entry): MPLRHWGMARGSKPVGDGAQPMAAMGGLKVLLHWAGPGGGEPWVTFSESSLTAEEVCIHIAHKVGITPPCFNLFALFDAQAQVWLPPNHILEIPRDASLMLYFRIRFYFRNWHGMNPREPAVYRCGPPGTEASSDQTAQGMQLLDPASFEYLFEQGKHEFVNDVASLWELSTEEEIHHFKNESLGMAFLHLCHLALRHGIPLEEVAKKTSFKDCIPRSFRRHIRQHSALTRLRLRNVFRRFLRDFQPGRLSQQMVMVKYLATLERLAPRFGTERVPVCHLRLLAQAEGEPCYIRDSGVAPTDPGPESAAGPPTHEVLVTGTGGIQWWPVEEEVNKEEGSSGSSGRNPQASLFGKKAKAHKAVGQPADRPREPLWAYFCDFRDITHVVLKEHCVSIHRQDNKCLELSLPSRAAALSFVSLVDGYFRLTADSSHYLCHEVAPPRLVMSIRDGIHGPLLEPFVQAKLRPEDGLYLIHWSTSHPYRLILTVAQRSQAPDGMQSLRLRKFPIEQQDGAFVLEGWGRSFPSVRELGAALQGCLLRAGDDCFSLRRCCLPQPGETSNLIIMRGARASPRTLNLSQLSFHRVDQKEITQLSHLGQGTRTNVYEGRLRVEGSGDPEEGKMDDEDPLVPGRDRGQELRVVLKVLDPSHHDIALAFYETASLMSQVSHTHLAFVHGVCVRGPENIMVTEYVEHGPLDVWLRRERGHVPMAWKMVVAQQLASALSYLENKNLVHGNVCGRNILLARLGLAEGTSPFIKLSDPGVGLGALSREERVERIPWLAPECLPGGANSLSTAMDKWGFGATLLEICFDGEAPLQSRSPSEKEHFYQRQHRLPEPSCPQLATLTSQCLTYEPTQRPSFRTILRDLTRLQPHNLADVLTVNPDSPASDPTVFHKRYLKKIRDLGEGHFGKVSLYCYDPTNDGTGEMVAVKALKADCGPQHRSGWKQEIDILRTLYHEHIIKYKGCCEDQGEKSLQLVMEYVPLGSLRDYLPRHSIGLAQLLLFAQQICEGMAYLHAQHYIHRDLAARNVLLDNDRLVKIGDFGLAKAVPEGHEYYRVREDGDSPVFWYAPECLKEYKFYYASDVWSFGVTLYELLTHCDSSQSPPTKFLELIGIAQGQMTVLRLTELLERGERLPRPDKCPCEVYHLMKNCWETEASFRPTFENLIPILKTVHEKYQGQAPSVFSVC
- PROCEDURE_DETAILS: Kinobeads assay, TYK2 (competition binding in mixed Molt4/Ramos cell lysate, dot blot detection)
- ASSAY_CONDITIONS: Kinobeads assay, Molt4/Ramos lysate; read-out: TYK2 Band (Kinobeads assay potency, IC50)
RESULT_TYPE: IC50

Recorded results for 3 compounds are shown here.
>  <STRUCTURE_STRING>
OCCn1cc(Nc2ncc(F)c(NCc3ccccc3)n2)cn1

>  <TEST_RESULT>
100 to 1000 nM

$$$$
>  <STRUCTURE_STRING>
OCCn1cc(Nc2ncc(Cl)c(NCc3cc(F)cc(C(F)(F)F)c3)n2)cn1

>  <TEST_RESULT>
100 to 1000 nM

$$$$
>  <STRUCTURE_STRING>
COc1ccc(F)c(CNc2nc(Nc3cnn(CC(=O)O)c3)ncc2F)c1F

>  <TEST_RESULT>
10 to 100 nM

$$$$

Please find the next compound below.
Please look up its IC50: Cn1cc(Nc2ncc(Cl)c(NCc3cc(C(F)(F)F)ccc3Cl)n2)cn1
100 to 1000 nM
